Tgt: human 11β-HSD2 (Homo sapiens, UniProt P80365)
Sequence (P80365 1-405): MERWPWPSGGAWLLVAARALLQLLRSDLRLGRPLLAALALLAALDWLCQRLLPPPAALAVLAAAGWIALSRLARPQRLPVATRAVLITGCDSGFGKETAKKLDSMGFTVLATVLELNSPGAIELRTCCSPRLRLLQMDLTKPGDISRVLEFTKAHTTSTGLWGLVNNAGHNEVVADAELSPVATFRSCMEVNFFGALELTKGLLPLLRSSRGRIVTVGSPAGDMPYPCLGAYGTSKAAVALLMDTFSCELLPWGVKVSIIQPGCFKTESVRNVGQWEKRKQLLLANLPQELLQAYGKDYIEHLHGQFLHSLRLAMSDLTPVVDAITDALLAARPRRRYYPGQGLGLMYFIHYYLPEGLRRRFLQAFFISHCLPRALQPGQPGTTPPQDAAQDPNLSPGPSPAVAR
pIC50: −log10 of the molar value.
Readout Type: pIC50

CC(=O)OC1CCc2c(ccc3c2C(=O)C(=O)c2c(C)coc2-3)C1(C)C (stereo not drawn) :: 5.14
C[C@H]1COC2=C1C(=O)C(=O)c1c2ccc2c1CCCC2(C)C :: 4.92
Cc1c(CN(C)C)oc2c1C(=O)C(=O)c1c-2ccc2c1CCCC2(C)C [Compound 29a] :: 5.25
Cc1coc2c1C(=O)C(=O)c1c-2ccc2c1CCC(=O)C2(C)C :: 5.23
Cc1c(CN2CCCCC2)oc2c1C(=O)C(=O)c1c-2ccc2c1CCCC2(C)C [Compound 29b] :: 5.19
Cc1c(COCO)oc2c1C(=O)C(=O)c1c-2ccc2c1CCCC2(C)C [Compound 28a] :: 5.39
Cc1c(-c2ccncc2)oc2c1C(=O)C(=O)c1c-2ccc2c1CCCC2(C)C [Compound 27c] :: 5.21
Cc1c(CO)oc2c1C(=O)C(=O)c1c-2ccc2c1CCCC2(C)C [Compound 28b] :: 5.20

* * *

Tgt: human 11β-HSD1 (Homo sapiens, UniProt P28845)
Sequence (P28845 whole entry): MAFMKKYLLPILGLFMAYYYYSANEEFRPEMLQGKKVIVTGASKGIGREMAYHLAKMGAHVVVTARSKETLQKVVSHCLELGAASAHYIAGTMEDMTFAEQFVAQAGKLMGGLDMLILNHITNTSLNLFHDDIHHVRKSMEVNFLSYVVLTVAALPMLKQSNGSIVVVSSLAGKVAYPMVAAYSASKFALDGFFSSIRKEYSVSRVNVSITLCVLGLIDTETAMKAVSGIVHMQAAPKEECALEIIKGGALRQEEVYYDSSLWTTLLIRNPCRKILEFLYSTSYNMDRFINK
Test: scintillation proximity assay (SPA), microsomes of HEK-293 cells transfected with human 11β-HSD1
Test Context: read-out: Inhibitory ratio h-HSD1, at 1.0 μM; averages of three determinations
Readout Type: inhibition at 1 µM (%)

Cc1coc2c3ccc4c(c3c3[nH]c(-c5ccc(O)cc5)nc3c12)CCCC4(C)C :: 12.8
CC1(C)CCCc2c1ccc1c2C(=O)C(=O)c2c(CNc3ccccc3)coc2-1 [Compound 31a] :: 32.6
Cc1c(-c2ccncc2)oc2c1C(=O)C(=O)c1c-2ccc2c1CCCC2(C)C [Compound 27c] :: 82.5
Cc1coc2c1c(=O)oc1c3ccccc3ccc21 :: 14
Cc1c(-c2ccccc2)oc2c1C(=O)C(=O)c1c-2ccc2c1CCCC2(C)C [Compound 27a] :: 33.9

I = C[C@@H](CO)C1=C(N)c2ccc3c(c2C(=O)C1=O)CCCC3(C)C
II = Cc1c(-c2ccc(F)cc2)oc2c1C(=O)C(=O)c1c-2ccc2c1CCCC2(C)C [Compound 27b]
Task item: Select the item with the higher value of inhibition at 1 µM from the options I and II listed. Answer by stating the label of the chosen item.
Reply: I

P = Cc1coc2c1C(=O)C(=O)c1c-2ccc2c1C(=O)C(O)CC2(C)C (stereo not shown) [Compound 18b]
Q = Cc1c(CN2CCCCC2)oc2c1C(=O)C(=O)c1c-2ccc2c1CCCC2(C)C [Compound 29b]
Task item: // task: argmin of inhibition at 1 µM over [ P , Q ] Choose, then provide that item's label.
Reply: P
(P: 43.2%, Q: 87.8%)

* * *

Tgt: UniProt P50172
Test: scintillation proximity assay (SPA), microsomes of HEK-293 cells transfected with mouse 11β-HSD1
Test Context: read-out: Inhibitory ratio m-HSD1, at 1.0 μM; averages of three determinations
Readout Type: inhibition at 1 µM (%)

Reference set (5 entries):
Cc1coc2c1C(=O)C(=O)c1c-2ccc2c1C(=O)C(O)=CC2(C)C [Compound 20] :: 81.8
Cc1coc2c1C(=O)C(=O)c1c-2ccc2c1CCC(O)C2(C)C (stereo not drawn) [Compound 15] :: 85.3
Cc1c[nH]c2c1C(=O)C(=O)c1c-2ccc2c1CCCC2(C)C [Compound 24] :: 56
Cc1c(-c2ccnc3ccccc23)oc2c1C(=O)C(=O)c1c-2ccc2c1CCCC2(C)C [Compound 27e] :: 42.9
Cc1c(-c2ccsc2)oc2c1C(=O)C(=O)c1c-2ccc2c1CCCC2(C)C [Compound 27d] :: 37.4

I = CC1(C)CCCc2c1ccc1c2C(=O)C(=O)c2c(CN3CCOCC3)coc2-1 [Compound 31b]
II = Cc1c(-c2ccccc2)oc2c1C(=O)C(=O)c1c-2ccc2c1CCCC2(C)C [Compound 27a]
III = Cc1c(CN2CCOCC2)oc2c1C(=O)C(=O)c1c-2ccc2c1CCCC2(C)C [Compound 29c]
IV = Cc1c(COCO)oc2c1C(=O)C(=O)c1c-2ccc2c1CCCC2(C)C [Compound 28a]
Task item: Arrange by inhibition at 1 µM, high to low. Please list each label once, in the requested order.
Reply: IV, I, II, III

* * *

Tgt: mouse 11β-HSD1 (Mus musculus, UniProt P50172)
Sequence (P50172 whole entry): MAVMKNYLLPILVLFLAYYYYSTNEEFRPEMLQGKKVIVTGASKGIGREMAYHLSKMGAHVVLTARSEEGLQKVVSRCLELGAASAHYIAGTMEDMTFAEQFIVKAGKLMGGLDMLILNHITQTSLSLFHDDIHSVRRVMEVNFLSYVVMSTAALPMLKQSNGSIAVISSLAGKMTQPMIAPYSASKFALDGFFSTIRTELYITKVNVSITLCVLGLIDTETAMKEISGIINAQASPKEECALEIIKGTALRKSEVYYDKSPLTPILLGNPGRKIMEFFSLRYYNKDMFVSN
Test: scintillation proximity assay (SPA), microsomes of HEK-293 cells transfected with mouse 11β-HSD1
Test Context: read-out: Inhibitory ratio m-HSD1, at 1.0 μM; averages of three determinations
Readout Type: inhibition at 1 µM (%)

Cc1c(Br)oc2c1C(=O)C(=O)c1c-2ccc2c1C=CCC2(C)C :: 87.3
Cc1coc2c3ccc4c(c3c3[nH]c(-c5ccc(O)cc5)nc3c12)CCCC4(C)C :: 19.2

A = Cc1coc2c1C(=O)C(=O)c1c-2ccc2c1C(=O)C(O)CC2(C)C (centres unmarked) [Compound 18b]
B = CC(=O)OC1CCc2c(ccc3c2C(=O)C(=O)c2c(C)coc2-3)C1(C)C (centres unmarked)
Task item: Between item A and item B , which reported inhibition at 1 µM is smaller? Kindly state the label of the option you pick.
Reply: A

a = CC1(C)CCCc2c1ccc1c2C(=O)C(=O)c2c(CNc3ccccc3)coc2-1 [Compound 31a]
b = Cc1coc2c1c(=O)oc1c3ccccc3ccc21
Task item: Which of these two has the smaller recorded inhibition at 1 µM: a or b ? Answer by quoting the chosen item's label.
Reply: b
(b: 8.4%, a: 88.9%)

a = Cc1coc2c1C(=O)C(=O)c1c-2ccc2c1[C@H](O)[C@@H](O)CC2(C)C (racemic) [Compound 18a]
b = Cc1coc2c1C(=O)C(=O)C=C2
c = Cc1c(-c2ccc(F)cc2)oc2c1C(=O)C(=O)c1c-2ccc2c1CCCC2(C)C [Compound 27b]
Task item: List by increasing inhibition at 1 µM. State the ranking by listing the labels in the requested order.
Reply: c, b, a
(c: 5.6%, b: 33%, a: 89%)

* * *

Tgt: mouse 11β-HSD2 (Mus musculus, UniProt P51661)
Sequence (P51661 whole entry): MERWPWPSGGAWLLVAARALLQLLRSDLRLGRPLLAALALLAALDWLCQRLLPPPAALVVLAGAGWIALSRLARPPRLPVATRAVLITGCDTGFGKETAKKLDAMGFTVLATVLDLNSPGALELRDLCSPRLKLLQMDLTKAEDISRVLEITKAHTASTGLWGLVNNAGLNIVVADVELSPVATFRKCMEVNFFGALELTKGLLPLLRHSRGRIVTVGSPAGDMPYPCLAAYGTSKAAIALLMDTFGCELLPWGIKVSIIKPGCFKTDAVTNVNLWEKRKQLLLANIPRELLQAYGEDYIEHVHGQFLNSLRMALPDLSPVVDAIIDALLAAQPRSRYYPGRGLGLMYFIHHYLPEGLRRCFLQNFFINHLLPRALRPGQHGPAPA
Test: scintillation proximity assay (SPA), microsomes of HEK-293 cells transfected with mouse 11β-HSD2
We begin with a simple list: items and their reported IC50.

Below: 5 compounds and their reported IC50.
CC1(C)CCCc2c1ccc1c2C(=O)C(=O)c2c(CO)coc2-1 :: > 100 µM
Cc1coc2c1C(=O)C(=O)c1c-2ccc2c1C(=O)C(O)=CC2(C)C :: > 10 µM
Cc1coc2c1C(=O)C(=O)c1c-2ccc2c1C=CC(=O)C2(C)C :: > 100 µM
CC1(C)CCCc2c1ccc1c2C(=O)C(=O)c2c-1oc(Cl)c2CO :: > 10 µM
C[C@H]1COC2=C1C(=O)C(=O)c1c2ccc2c1CCCC2(C)C :: > 1000 µM

`Cc1coc2c1C(=O)C(=O)c1c-2ccc2c1CCC(=O)C2(C)C` on mouse 11β-HSD2 (Mus musculus, UniProt P51661) gives IC50 = > 100 µM

Record for `CC1(C)C(=O)C=Cc2c1ccc1c2C(=O)C(=O)c2c(CO)coc2-1` under target or system mouse 11β-HSD2 (Mus musculus, UniProt P51661): IC50 reported as > 100 µM

Entry CC1(C)CCCc2c1ccc1c2C(=O)C(=O)c2c(CNc3ccccc3)coc2-1 [Compound 31a] ; assay system mouse 11β-HSD2 (Mus musculus, UniProt P51661); IC50 recorded at > 10 µM

IC50 for mouse 11β-HSD2 (Mus musculus, UniProt P51661) with input CC(=O)OC1CCc2c(ccc3c2C(=O)C(=O)c2c(C)coc2-3)C1(C)C (stereo not drawn) equals > 100 µM

GET /values?item= Cc1c(COCO)oc2c1C(=O)C(=O)c1c-2ccc2c1CCCC2(C)C [Compound 28a] &system= mouse 11β-HSD2 (Mus musculus, UniProt P51661) returns IC50: > 100 µM

# `Cc1coc2c1C(=O)C(=O)c1ccccc1-2` with mouse 11β-HSD2 (Mus musculus, UniProt P51661): IC50 is > 10 µM

The compound CC(=O)OC1CCc2c(ccc3c2C(=O)C(=O)c2c(CO)coc2-3)C1(C)C (stereo not drawn) , tested on mouse 11β-HSD2 (Mus musculus, UniProt P51661), showed IC50 of > 100 µM

Per the reported mouse 11β-HSD2 (Mus musculus, UniProt P51661) data, Cc1c(CN(C)C)oc2c1C(=O)C(=O)c1c-2ccc2c1CCCC2(C)C [Compound 29a] has IC50 of > 100 µM

Form: item Cc1c(CO)oc2c1C(=O)C(=O)c1c-2ccc2c1CCCC2(C)C [Compound 28b] ; test system mouse 11β-HSD2 (Mus musculus, UniProt P51661); IC50: > 100 µM

Observed IC50, mouse 11β-HSD2 (Mus musculus, UniProt P51661), Cc1coc2c1C(=O)C(=O)c1c-2ccc2c1[C@H](O)[C@@H](O)CC2(C)C (racemic) [Compound 18a] : > 100 µM

Result for Cc1c(-c2ccncc2)oc2c1C(=O)C(=O)c1c-2ccc2c1CCCC2(C)C [Compound 27c] , tested on mouse 11β-HSD2 (Mus musculus, UniProt P51661), IC50: > 10 µM
